# procedure details: qHTS profiling for inhibitors of Plasmodium falciparum proliferation (AID 504749);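 further: 0% = DMSO vehicle and full inhibition = artemisinin control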
# conditions used: P. falciparum in erythrocytes, SYBR Green DNA, 72 h; at 12.8 µM (top of the series); parasite line B
# Description: NIH National Institute of Allergy and Infectious Diseases [NIAID] NIH Chemical Genomics Center [NCGC] […] Because mature erythrocytes lack DNA, only Plasmodium-derived DNA is detected. NCGC Assay Protocol Summary: The SYBR Green viability assay was adapted from a method described previously (Plouffe et al., 2008). […] The following morning, fluorescence intensity at 485(14) nm excitation and 535(25) nm emission wavelengths was measured on an EnVision (Perkin Elmer) plate reader. […]
Results filed as inconclusive are left out.
measured attribute: activity, negative = inhibition (%)

[[record]]
molecule = "CCNC[C@H](O)c1cccc(O)c1"
measured_attribute = "activity, negative = inhibition"
observed_value = 2.63

[[record]]
molecule = "C[C@@]12CC[C@H]3[C@@H](CC[C@@H]4C[C@H]5S[C@H]5C[C@]43C)[C@H]1CC[C@H]2O"
measured_attribute = "activity, negative = inhibition"
observed_value = 1.96

[[record]]
molecule = "CC[C@@H]1[C@@H]2C[C@H]3[C@H]4N(C)c5ccccc5[C@@]45C[C@@H]([C@@H]2[C@@H]5O)N3[C@H]1O"
measured_attribute = "activity, negative = inhibition"
observed_value = 7.76

[[record]]
molecule = "CNC[C@H](O)c1ccc(O)cc1"
measured_attribute = "activity, negative = inhibition"
observed_value = 13.2

[[record]]
molecule = "C[C@@]12CCC(=O)C=C1C=C[C@H]1[C@H]3CC[C@](O)(CCC(=O)O)[C@]3(C)CC[C@@H]12"
measured_attribute = "activity, negative = inhibition"
observed_value = 6.42

[[record]]
molecule = "CN(C)C(=O)Oc1cc(OC(=O)N(C)C)cc([C@@H](O)CNC(C)(C)C)c1"
measured_attribute = "activity, negative = inhibition"
observed_value = -2.95

[[record]]
molecule = "C[N+]1([O-])[C@@H]2CC(OC(=O)[C@@H](CO)c3ccccc3)C[C@@H]1[C@H]1O[C@H]12 (some centres not stated)"
measured_attribute = "activity, negative = inhibition"
observed_value = -5.73

